Here the recorded Papp at 4 h, 100 µM is given for each entry.
Assay: PAMPA-BBB parallel artificial membrane permeability assay
Conditions: PAMPA

- compound: "O=C(O)c1ccccc1O [Salicylic acid]"
  valueUnits: "×10⁻⁶ cm/s"
  Papp at 4 h, 100 µM: 0.00851
- compound: "C[C@@H]1O[C@@H](OC[C@H]2O[C@@H](Oc3c(-c4ccc(O)c(O)c4)oc4cc(O)cc(O)c4c3=O)[C@H](O)[C@@H](O)[C@@H]2O)[C@H](O)[C@H](O)[C@H]1O [Rutin]"
  valueUnits: "×10⁻⁶ cm/s"
  Papp at 4 h, 100 µM: 0.00776
- compound: "Cn1c(=O)c2c(ncn2C)n(C)c1=O [Caffeine]"
  valueUnits: "×10⁻⁶ cm/s"
  Papp at 4 h, 100 µM: 3.24
- compound: "C=C[C@H]1C[N@@]2CC[C@H]1C[C@H]2[C@H](O)c1ccnc2ccc(OC)cc12 [Quinine]"
  valueUnits: "×10⁻⁶ cm/s"
  Papp at 4 h, 100 µM: 15.5

----------
System: MAO-B vs MAO-A
Assay: Selectivity index of ChEMBl reference structures (MAO-A and MAO-B IC50)
Assay type: biochemical, human
Settings: selectivity index calculated from ChEMBl IC50 values of MAO-A and MAO-B
Here the recorded Selectivity is given for each entry.

- compound: "O=C1/C(=C/c2cccc(Br)c2)Cc2cc(O)ccc21"
  Selectivity: 10.0769
- compound: "O=C1/C(=C/c2ccc(Cl)cc2)Cc2cc(O)ccc21"
  Selectivity: 57
- compound: "Cc1ccc2occ(/C=N/c3cc(F)ccc3O)c(=O)c2c1"
  Selectivity: 1.637
- compound: "Cc1ccc2occ(/C=N/c3cc(Cl)ccc3O)c(=O)c2c1"
  Selectivity: 3.391
- compound: "O=c1c2ccccc2sc2cc(O)cc(O)c12 [CHEMBL2018439, 1,3-Dihydroxythioxanthone]"
  Selectivity: 0.9333
- compound: "O=c1c(/C=N/c2ccc(Cl)cc2O)coc2ccccc12"
  Selectivity: 0.7978
- compound: "Cc1ccc2occ(/C=N/c3ccc(Cl)cc3O)c(=O)c2c1"
  Selectivity: 2.863
- compound: "O=C1/C(=C/c2ccc(N3CCCC3)cc2)Oc2cc(O)cc(O)c21"
  Selectivity: 1.1688
- compound: "O=C1/C(=C/c2cccc(F)c2)Cc2cc(O)ccc21"
  Selectivity: 5.452
- compound: "N#Cc1cccc(/C=C2\\Cc3cc(O)ccc3C2=O)c1"
  Selectivity: 3.415
- compound: "COc1ccc(C2CC(c3ccc(O)cc3)=NN2C(C)=O)cc1 (centres unmarked)"
  Selectivity: 0.00125
- compound: "O=C1/C(=C/c2cccc(Cl)c2)Cc2cc(O)ccc21"
  Selectivity: 5.233
- compound: "O=C1/C(=C/c2ccc(F)cc2)Cc2cc(O)ccc21"
  Selectivity: 14.4468
- compound: "CCN(C)c1ccc(/C=C2\\Oc3cc(O)cc(O)c3C2=O)cc1"
  Selectivity: 0.03453

----------
Here the recorded logP at 1 h is given for each entry.
Experiment: Octanol/water partitioning, shake-flask method (log P, log D^pH)
Conditions: n-octanol/Britton-Robinson buffer, pH 5
endpointName: logP at 1 h

- molecule: "COc1ccc(-c2coc3cc(O)ccc3c2=O)cc1"
  endpointName: "logP at 1 h"
  recordedValue: 2.83
- molecule: "COc1cc(-c2coc3cc(O)ccc3c2=O)ccc1O"
  endpointName: "logP at 1 h"
  recordedValue: 2.48
- molecule: "COc1ccc(C2COc3cc(O)ccc3C2=O)c(OC)c1 (stereo not shown)"
  endpointName: "logP at 1 h"
  recordedValue: 3.04
- molecule: "COc1cc2c(cc1C1COc3cc(O)ccc3C1=O)OCO2 (stereo not shown)"
  endpointName: "logP at 1 h"
  recordedValue: 3.03

----------
Assay: Octanol/water partitioning, shake-flask method (log P, log D^pH)
Conditions: n-octanol/Britton-Robinson buffer, pH 7.4
Here the recorded logD at 1 h is given for each entry.

- compound: "COc1cc2c(cc1C1COc3cc(O)ccc3C1=O)OCO2 (stereo not shown)"
  logD at 1 h: 2.49
- compound: "COc1cc(-c2coc3cc(O)ccc3c2=O)ccc1O"
  logD at 1 h: 2.21
- compound: "COc1ccc(C2COc3cc(O)ccc3C2=O)c(OC)c1 (stereo not shown)"
  logD at 1 h: 2.75
- compound: "COc1ccc(-c2coc3cc(O)ccc3c2=O)cc1"
  logD at 1 h: 2.73

----------
Experiment: PAMPA-BBB parallel artificial membrane permeability assay
Details: PAMPA, pH 7.4

- compound: "COc1cc2c(cc1C1COc3cc(O)ccc3C1=O)OCO2 (stereo not shown)"
  valueUnits: "nm/s"
  Papp at 4 h, 100 µM: 186
- compound: "COc1ccc(-c2coc3cc(O)ccc3c2=O)cc1"
  valueUnits: "nm/s"
  Papp at 4 h, 100 µM: 100
- compound: "COc1ccc(C2COc3cc(O)ccc3C2=O)c(OC)c1 (stereo not shown)"
  valueUnits: "nm/s"
  Papp at 4 h, 100 µM: 174
- compound: "COc1cc(-c2coc3cc(O)ccc3c2=O)ccc1O"
  valueUnits: "nm/s"
  Papp at 4 h, 100 µM: 25

----------
Test system: MAO-B vs MAO-A
Assay: Selectivity index of ChEMBl reference structures (MAO-A and MAO-B IC50)
Assay type: biochemical, human
Details: selectivity index calculated from ChEMBl IC50 values of MAO-A and MAO-B
Here the recorded Selectivity is given for each entry.

- smilesRepr: "Cc1ccc(O)c(/N=C/c2coc3ccc(C)cc3c2=O)c1"
  Selectivity: 6.275
- smilesRepr: "Cc1ccc(O)c(/N=C/c2coc3ccccc3c2=O)c1"
  Selectivity: 2.956
- smilesRepr: "O=C1/C(=C/c2ccc(N3CCOCC3)cc2)Oc2cc(O)cc(O)c21"
  Selectivity: 3.176
- smilesRepr: "O=C(Nc1ccc(O)c(O)c1)c1coc2ccccc2c1=O"
  Selectivity: 2.69
- smilesRepr: "O=C1/C(=C/c2ccc(Br)cc2)Cc2cc(O)ccc21"
  Selectivity: 198.113
- smilesRepr: "CCN(CC)c1ccc(/C=C2\\Oc3cc(O)cc(O)c3C2=O)cc1"
  Selectivity: 0.3443
- smilesRepr: "COc1cccc(/C=C2\\Cc3cc(O)ccc3C2=O)c1"
  Selectivity: 2.527
- smilesRepr: "O=c1c(/C=N/c2cc(F)ccc2O)coc2ccccc12"
  Selectivity: 2.612
- smilesRepr: "N#Cc1ccc(/C=C2\\Cc3cc(O)ccc3C2=O)cc1"
  Selectivity: 6.582
- smilesRepr: "O=C(Nc1ccc(O)c(O)c1)c1cc(=O)c2ccccc2o1"
  Selectivity: 0.07

----------
Assay: Octanol/water partitioning, shake-flask method (log P, log D^pH)
Conditions: n-octanol/Britton-Robinson buffer, pH 5
Here the recorded logD at 1 h is given for each entry.

- compound: "COc1cc2c(cc1C1COc3cc(O)ccc3C1=O)OCO2 (stereo not shown)"
  logD at 1 h: 3.03
- compound: "COc1ccc(-c2coc3cc(O)ccc3c2=O)cc1"
  logD at 1 h: 2.83
- compound: "COc1cc(-c2coc3cc(O)ccc3c2=O)ccc1O"
  logD at 1 h: 2.48
- compound: "COc1ccc(C2COc3cc(O)ccc3C2=O)c(OC)c1 (stereo not shown)"
  logD at 1 h: 3.04

All values here come from paper PMC8929578.
